Measured values drawn from ChEMBL document CHEMBL2203143 for this set.

# tested.target: Tubulin (Sus scrofa) (UniProt P02554+P02550)
# Sequence (P02550 whole entry, looked up): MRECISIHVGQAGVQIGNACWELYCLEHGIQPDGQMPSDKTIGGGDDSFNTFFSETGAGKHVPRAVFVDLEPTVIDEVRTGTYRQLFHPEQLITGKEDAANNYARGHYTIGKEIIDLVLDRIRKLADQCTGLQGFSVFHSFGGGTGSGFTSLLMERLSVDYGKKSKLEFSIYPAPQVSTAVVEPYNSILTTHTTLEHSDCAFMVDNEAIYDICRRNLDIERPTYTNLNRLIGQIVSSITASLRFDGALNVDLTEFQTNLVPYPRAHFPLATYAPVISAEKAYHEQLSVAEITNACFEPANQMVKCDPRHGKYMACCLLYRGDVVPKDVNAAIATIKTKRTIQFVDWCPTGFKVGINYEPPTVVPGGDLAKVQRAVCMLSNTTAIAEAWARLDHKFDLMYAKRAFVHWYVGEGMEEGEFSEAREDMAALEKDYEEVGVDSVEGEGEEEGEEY
# Sequence (P02554 whole entry, looked up): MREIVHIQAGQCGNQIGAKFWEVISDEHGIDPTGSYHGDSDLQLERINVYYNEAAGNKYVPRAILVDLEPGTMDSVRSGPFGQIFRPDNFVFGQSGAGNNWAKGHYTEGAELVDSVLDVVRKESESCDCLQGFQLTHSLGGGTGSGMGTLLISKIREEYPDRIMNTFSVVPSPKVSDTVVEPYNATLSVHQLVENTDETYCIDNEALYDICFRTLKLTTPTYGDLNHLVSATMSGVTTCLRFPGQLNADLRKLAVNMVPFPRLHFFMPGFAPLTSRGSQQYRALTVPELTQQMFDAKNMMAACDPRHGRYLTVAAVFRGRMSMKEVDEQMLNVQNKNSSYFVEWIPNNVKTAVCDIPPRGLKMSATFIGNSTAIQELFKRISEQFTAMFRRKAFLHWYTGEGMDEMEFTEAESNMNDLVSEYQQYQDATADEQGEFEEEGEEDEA
# assay.notes: Displacement of [3H]colchicine from tubulin in pig brain at 10 uM after 16 hrs by scintillation proximity assay
quantity.name: inhibition (%)

Please review the following examples before continuing.
[
  {
    "molecule": "C=C1C=CC(=O)[C@@H]2[C@H](Cc3ccc(O)c(F)c3)CC[C@H]12 (racemic)",
    "inhibition, %": 37.3
  },
  {
    "molecule": "C=C1C=CC(=O)[C@@H]2[C@H](Cc3ccccc3)CC[C@H]12 (racemic)",
    "inhibition, %": 43.2
  },
  {
    "molecule": "C=C1C=CC(=O)[C@@H]2[C@H](Cc3ccc(O)cc3)CC[C@H]12 (racemic)",
    "inhibition, %": 71.6
  },
  {
    "molecule": "C=C1C=CC(=O)[C@@H]2[C@H](Cc3ccc(OC)c(O)c3)CC[C@H]12 (racemic)",
    "inhibition, %": 95.8
  },
  {
    "molecule": "C=C[C@@H]1C[C@@H](Cc2ccc(OC)c(O)c2)[C@H]2C(=O)C=CC(=C)[C@H]21 (racemic)",
    "inhibition, %": 98.3
  },
  {
    "molecule": "C=C1C=CC(=O)[C@@H]2[C@H](Cc3ccc(OCOC)c(F)c3)CC[C@H]12 (racemic)",
    "inhibition, %": 68.9
  }
]

A: C=C1C=CC(=O)[C@@H]2[C@H](Cc3ccc(OC)c(F)c3)CC[C@H]12 (racemic)
B: C=C1C=CC(=O)[C@@H]2[C@H](Cc3ccc(F)c(F)c3)CC[C@H]12 (racemic)
# return whichever of A and B has the smaller inhibition # respond with the chosen item's label
B
